# Tested on: U2OS
# test protocol: Multiplex assay against U2OS
# Assay type: toxicity, cell-based
# measurement conditions: human, 24 h, 10 µM, compound concentration 10 uM, replicate 2
# cutoff 20% applies to Population Pyknosed Nuclei (%); >= gives Fulfilled, < gives Not fulfilled

Prompt line: Would you say CCOC(=O)c1c(C)[nH]c2ccc3c(c12)CN1CCc2cc(OC)ccc2C1O3 (stereo not drawn) shows Population Pyknosed Nuclei (%) at minimum 20%?
Response line: Fulfilled

Prompt line: Same lookup for "O=C(Cc1ccc(-c2ccc(OCCN3CCOCC3)cc2)cn1)NCc1ccccc1" , please.
Response line: Fulfilled

Prompt line: What would you report for "CCn1c(=O)c(-c2ccc(-c3cncs3)cc2Cl)cc2cnc(Nc3ccc(N4CCN(C)CC4)cc3)nc21" ?
Response line: Not fulfilled

Prompt line: Repeat for the following compound: "COc1cc(N2CCN(C)CC2)ccc1Nc1ncc2c(n1)N(C)c1ccccc1C(=O)N2C"
Response line: Fulfilled

###

# Test system: Fibroblast
# test protocol: Multiplex assay against human fibroblast
# Format: toxicity, cell-based
# measurement conditions: 12 h, 10 µM, compound concentration 10 uM, replicate 1
Outcome label depends on Population Pyknosed Nuclei (%) relative to 20%: at/above gives MET, below gives NOT MET.

[
  {
    "molecule": "Cc1ccc(C(=O)Nc2cccc(C(F)(F)F)c2)cc1Nc1nc(-c2cccnc2)nc2c1cnn2C",
    "discrete label": "MET"
  },
  {
    "molecule": "COCC(=O)NC/C=C/c1ccc2ncnc(Nc3ccc(Oc4ccc(C)nc4)c(C)c3)c2c1",
    "discrete label": "MET"
  },
  {
    "molecule": "CN1C2CCC1CC(OC(c1ccc(F)cc1)c1ccc(F)cc1)C2.Cl (configuration not stated)",
    "discrete label": "NOT MET"
  }
]

Let us examine a further case.
Prompt line: Kindly determine if Population Pyknosed Nuclei (%) recorded for "CCn1c(=O)c(-c2ccc(-c3cncs3)cc2Cl)cc2cnc(Nc3ccc(N4CCN(C)CC4)cc3)nc21" is above or exactly 20%.
Response line: MET

###

# System: Fibroblast
# test protocol: Multiplex assay against human fibroblast
# Format: toxicity, cell-based
# measurement conditions: 48 h, 10 µM, compound concentration 10 uM, replicate 1
readout kind: Population Tubulin-Different-Phenotype (%)
Write it as a number; the unit % goes unstated.

[
  {
    "molecule": "CCN1CCN(Cc2ccc(Nc3ncc(F)c(-c4cc(F)c5nc(C)n(C(C)C)c5c4)n3)nc2)CC1.CS(=O)(=O)O",
    "target system": "Fibroblast",
    "units text": "%",
    "measurement": 76
  },
  {
    "molecule": "CCn1c(=O)c(-c2ccc(-c3cncs3)cc2Cl)cc2cnc(Nc3ccc(N4CCN(C)CC4)cc3)nc21",
    "target system": "Fibroblast",
    "units text": "%",
    "measurement": 10
  },
  {
    "molecule": "Cc1cn(-c2cc(NC(=O)c3ccc(C)c(Nc4nccc(-c5cccnc5)n4)c3)cc(C(F)(F)F)c2)cn1 [NILOTINIB]",
    "target system": "Fibroblast",
    "units text": "%",
    "measurement": 2
  }
]

Prompt line: Using the record for "CNc1cc(Oc2cc(C(=O)Nc3cc(N4CCN(C)CC4)cc(C(F)(F)F)c3)ccc2C)ncn1" , report its Population Tubulin-Different-Phenotype (%).
Response line: 72

Prompt line: One more molecule: CCCn1c(=O)c2[nH]c(-c3cnn(Cc4cccc(C(F)(F)F)c4)c3)nc2n(CC)c1=O [GS 6201]
Response line: 48

Prompt line: And for "CCOc1cc(C(=O)N2CCC(N3CCN(C)CC3)CC2)ccc1Nc1ncc2c(n1)N(C1CCCC1)c1ccccc1C(=O)N2C" ?
Response line: 66

Prompt line: And for "COc1cc(N2CCN(C)CC2)ccc1Nc1ncc2c(n1)N(C)c1ccccc1C(=O)N2C" ?
Response line: 44

Prompt line: Then what about the molecule O=C(Nc1ccc(-n2nc(-c3cccnc3)cc2C(F)(F)F)cn1)c1ccc(-c2ccccc2)c(F)c1 [BI 2049] ?
Response line: 64
